This document collects MIC values reported for Streptococcus salivarius subsp. salivarius.

Sample answers from the record:
molecule: CC[C@H]1OC(=O)[C@H](C)[C@@H](O[C@H]2CC(N(C)C)[C@H](O)C(C)O2)[C@H](C)[C@@H](O)[C@](C)(O)C[C@@H](C)C(O)[C@H](C)[C@@H](O)[C@H]1C (stereo partly shown) [Compound 7]
result: > 64 µg/mL

molecule: CC[C@H]1OC(=O)[C@H](C)[C@@H](O[C@H]2C[C@@](C)(OC)[C@@H](O)[C@H](C)O2)[C@H](C)[C@@H](O[C@@H]2O[C@H](C)C[C@H](N(C)C)[C@H]2O)[C@](C)(O)C[C@@H](C)CN(C)[C@H](C)[C@@H](O)[C@]1(C)O [Azithromycin, reference compound]
result: < 0.5 µg/mL

molecule: CC[C@H]1OC(=O)[C@H](C)[C@@H](O[C@H]2CC(N(C)C)[C@H](O)C(C)O2)[C@H](C)[C@@H](O)[C@](C)(O)C[C@@H](C)CN(C)[C@H](C)[C@@H](O)[C@H]1C (stereo partly shown) [Compound 4]
result: > 64 µg/mL

Next up:
The molecule CC[C@H]1OC(=O)[C@H](C)[C@@H](O[C@H]2CC(NC)[C@H](O)C(C)O2)[C@H](C)[C@@H](O)[C@](C)(O)C[C@@H](C)C(=O)[C@H](C)[C@@H](O)[C@H]1C (stereo partly shown) [Compound 6] on Streptococcus salivarius subsp. salivarius: MIC was > 64 µg/mL

---

system: Lactobacillus casei; test: Minimum Inhibitory Concentration (MIC) assay; type: cell-based; conditions: Lacticaseibacillus casei; anaerobic, 37° C., 18 h
experimental_endpoint: MIC

molecule: CC[C@H]1OC(=O)[C@H](C)[C@@H](O[C@H]2C[C@@H](N(C)C)[C@H](O)[C@@H](C)O2)[C@H](C)[C@@H](O)[C@](C)(O)C[C@@H](C)CN(C)[C@H](C)[C@@H](O)[C@]1(C)O
experimental_endpoint: MIC
result: > 64 µg/mL
//
molecule: CC[C@H]1OC(=O)[C@H](C)[C@@H](O[C@H]2C[C@@](C)(OC)[C@@H](O)[C@H](C)O2)[C@H](C)[C@@H](O[C@@H]2O[C@H](C)C[C@H](N(C)C)[C@H]2O)[C@](C)(O)C[C@@H](C)CN(C)[C@H](C)[C@@H](O)[C@]1(C)O [Azithromycin, reference compound]
experimental_endpoint: MIC
result: < 1 µg/mL
//
molecule: CC(O)[C@H]1OC(=O)[C@H](C)[C@@H](O[C@H]2C[C@@H](N(C)C)[C@H](O)[C@@H](C)O2)[C@H](C)[C@@H](O)[C@](C)(O)C[C@@H](C)C(=O)[C@H](C)[C@@H](O)[C@H]1C (stereo partly drawn) [Compound 9, 14-hydroxy angolosamine erythronolide B]
experimental_endpoint: MIC
result: > 64 µg/mL
//
molecule: CC[C@H]1OC(=O)[C@H](C)[C@@H](O[C@H]2CC(N(C)C)[C@H](O)C(C)O2)[C@H](C)[C@@H](O)[C@](C)(O)C[C@@H](C)C(O)[C@H](C)[C@@H](O)[C@H]1C (stereo partly drawn)
experimental_endpoint: MIC
result: > 64 µg/mL
//
molecule: CC1O[C@@H](O[C@H]2[C@H](C)[C@@H](O)[C@](C)(O)C[C@@H](C)C(=O)[C@H](C)[C@@H](O)[C@@H](C)[C@@H](C)OC(=O)[C@@H]2C)CC(N(C)C)[C@@H]1O (stereo partly drawn)
experimental_endpoint: MIC
result: > 64 µg/mL

Looking up CC[C@H]1OC(=O)[C@H](C)[C@@H](O[C@H]2CC(NC)[C@H](O)C(C)O2)[C@H](C)[C@@H](O)[C@](C)(O)C[C@@H](C)C(=O)[C@H](C)[C@@H](O)[C@H]1C (stereo partly drawn) , I see its MIC listed as > 64 µg/mL

Lab book: MIC of CC[C@H]1OC(=O)[C@H](C)[C@@H](O[C@H]2CC(N(C)C)[C@H](O)C(C)O2)[C@H](C)[C@@H](O)[C@](C)(O)C[C@@H](C)CN(C)[C@H](C)[C@@H](O)[C@H]1C (stereo partly drawn) noted as > 64 µg/mL

// field: MIC; key: CC1O[C@@H](O[C@H]2[C@H](C)[C@@H](O)[C@](C)(O)C[C@@H](C)C(=O)[C@H](C)[C@@H](O)[C@@H](C)[C@@H](C3CCC3)OC(=O)[C@@H]2C)CC(N(C)C)[C@@H]1O (stereo partly drawn) ; value = > 64 µg/mL

In plain terms, CC[C@H]1OC(=O)[C@H](C)[C@@H](O[C@H]2C[C@@](C)(OC)[C@@H](O)[C@H](C)O2)[C@H](C)[C@@H](O[C@@H]2O[C@H](C)C[C@H](N(C)C)[C@H]2O)[C@](C)(O)C[C@@H](C)C(=O)[C@H](C)[C@@H](O)[C@]1(C)O [Erythromycin, reference compound] has a documented MIC of < 0.25 µg/mL

---

test system: Streptococcus salivarius subsp. salivarius
experimental_endpoint: MIC

Lab book: MIC of CC1O[C@@H](O[C@H]2[C@H](C)[C@@H](O)[C@](C)(O)C[C@@H](C)C(=O)[C@H](C)[C@@H](O)[C@@H](C)[C@@H](C3CCC3)OC(=O)[C@@H]2C)CC(N(C)C)[C@@H]1O (stereo partly shown) noted as > 64 mg/L

---

Listed here: items and their measured MIC.
tested on: Streptococcus salivarius subsp. salivarius

# annotated cases, reported MIC shown
molecule: CC[C@H]1OC(=O)[C@H](C)[C@@H](O[C@H]2C[C@@](C)(OC)[C@@H](O)[C@H](C)O2)[C@H](C)[C@@H](O[C@@H]2O[C@H](C)C[C@H](N(C)C)[C@H]2O)[C@](C)(O)C[C@@H](C)C(=O)[C@H](C)[C@@H](O)[C@]1(C)O [Erythromycin, reference compound]
MIC: < 0.06 µg/mL
--
molecule: CC(O)[C@H]1OC(=O)[C@H](C)[C@@H](O[C@H]2C[C@@H](N(C)C)[C@H](O)[C@@H](C)O2)[C@H](C)[C@@H](O)[C@](C)(O)C[C@@H](C)C(=O)[C@H](C)[C@@H](O)[C@H]1C (stereo partly shown) [Compound 9, 14-hydroxy angolosamine erythronolide B]
MIC: > 64 µg/mL
--
molecule: CC[C@H]1OC(=O)[C@H](C)[C@@H](O[C@H]2C[C@@H](N(C)C)[C@H](O)[C@@H](C)O2)[C@H](C)[C@@H](O)[C@](C)(O)C[C@@H](C)CN(C)[C@H](C)[C@@H](O)[C@]1(C)O [Compound 1]
MIC: > 64 µg/mL

The reported Streptococcus salivarius subsp. salivarius MIC of CC1O[C@@H](O[C@H]2[C@H](C)[C@@H](O)[C@](C)(O)C[C@@H](C)C(=O)[C@H](C)[C@@H](O)[C@@H](C)[C@@H](C)OC(=O)[C@@H]2C)CC(N(C)C)[C@@H]1O (stereo partly shown) [Compound 8] is > 64 µg/mL

The reported numbers originate from patent US11059845B2.
